Target: Histone-lysine N-methyltransferase EHMT1 (Homo sapiens)
Sequence (Q9H9B1 whole entry): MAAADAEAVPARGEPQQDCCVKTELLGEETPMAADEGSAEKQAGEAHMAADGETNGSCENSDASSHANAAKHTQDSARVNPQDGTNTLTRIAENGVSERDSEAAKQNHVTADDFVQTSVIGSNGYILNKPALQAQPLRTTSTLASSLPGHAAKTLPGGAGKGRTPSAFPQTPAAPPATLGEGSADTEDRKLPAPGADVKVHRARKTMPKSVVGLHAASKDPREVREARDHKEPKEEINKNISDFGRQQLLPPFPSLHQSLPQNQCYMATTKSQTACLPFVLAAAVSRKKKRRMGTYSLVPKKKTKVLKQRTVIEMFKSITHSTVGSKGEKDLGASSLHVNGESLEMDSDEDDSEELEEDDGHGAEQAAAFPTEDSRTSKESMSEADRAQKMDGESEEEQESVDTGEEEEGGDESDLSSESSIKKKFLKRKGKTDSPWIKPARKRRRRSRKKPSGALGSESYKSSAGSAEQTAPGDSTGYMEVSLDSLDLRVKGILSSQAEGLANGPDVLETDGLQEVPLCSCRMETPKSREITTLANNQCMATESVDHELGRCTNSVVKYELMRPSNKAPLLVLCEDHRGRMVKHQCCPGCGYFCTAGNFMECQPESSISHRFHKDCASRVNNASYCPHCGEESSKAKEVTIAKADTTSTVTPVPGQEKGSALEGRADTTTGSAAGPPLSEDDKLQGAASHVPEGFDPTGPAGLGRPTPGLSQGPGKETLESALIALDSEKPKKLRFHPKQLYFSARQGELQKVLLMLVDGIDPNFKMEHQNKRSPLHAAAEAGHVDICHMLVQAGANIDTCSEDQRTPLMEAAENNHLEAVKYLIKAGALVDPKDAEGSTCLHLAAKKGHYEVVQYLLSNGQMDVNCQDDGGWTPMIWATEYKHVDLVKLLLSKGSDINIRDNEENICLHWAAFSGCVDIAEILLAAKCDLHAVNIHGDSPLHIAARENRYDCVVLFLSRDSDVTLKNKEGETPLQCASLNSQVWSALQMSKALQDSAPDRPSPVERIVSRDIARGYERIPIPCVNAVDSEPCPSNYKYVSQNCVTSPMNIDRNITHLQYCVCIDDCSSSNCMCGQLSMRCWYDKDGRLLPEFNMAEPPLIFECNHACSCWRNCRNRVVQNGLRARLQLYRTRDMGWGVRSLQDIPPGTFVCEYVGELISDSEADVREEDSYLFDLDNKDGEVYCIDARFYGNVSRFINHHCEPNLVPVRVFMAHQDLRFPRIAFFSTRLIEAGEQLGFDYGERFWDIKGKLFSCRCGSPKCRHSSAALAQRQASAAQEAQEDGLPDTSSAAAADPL
Observed property: IC50 (µM)

a. Nc1ncnc2c1ncn2[C@@H]1O[C@H](CC(N)CC2CCCCC2)[C@@H](O)[C@H]1O (stereo partly drawn)
b. Nc1ncnc2c1ncn2[C@@H]1O[C@H](C[C@@H](N)CC[C@H](N)C(=O)O)[C@@H](O)[C@H]1O
c. Nc1ncnc2c1ncn2[C@@H]1O[C@H](CCCc2ccccc2)[C@@H](O)[C@H]1O
Q: Sort (3 compounds) by IC50: min first. State the ranking by listing the labels in the requested order.
Ans: a, c, b
(a: 1.5 µM, c: 235 µM, b: 513 µM)

Sourced from ChEMBL document CHEMBL3259565
